System: IGROV-1
Test: NCI tumour cell line growth inhibition, 48 h
Calls of active or inactive are those of the source. Rule as the data show it: active = GI50 up to about 1.1 µM and inactive = higher.
Could you please pick one outcome from this set? 1 for active, 0 for inactive

Use the examples below as a reference point.
1) Cc1cccc2c1Oc1ccccc1C2NC(=O)c1ccc([N+](=O)[O-])cc1 (centres undefined): 0
2) CC(C)C[C@H](NC(=O)[C@H](Cc1ccccc1)NC(=O)CCc1ccccc1)B(O)O: 1
3) COc1ccc(N2C(=O)[C@@H](N=[N+]=[N-])[C@@H]2[C@H]2COC(C)(C)O2)cc1: 0

## Task So what was the verdict on `Cc1[nH]c2ccccc2c1-c1cc(-c2cc(-c3c(C)[nH]c4ccccc34)on2)no1` in this test?
## Result 0

## Task So what was the verdict on COc1ccc(OC)c(C2CCc3c(cnc4nc(N)nc(N)c34)C2)c1 (centres undefined) in this test?
## Result 0

## Task So what was the verdict on `CCOC(=O)/C=C/C1(CCOC(C)=O)CCCCC1` in this test?
## Result 0

## Task So what was the verdict on Cc1ccc(/N=C2\OP(=O)(Nc3ccc(C)cc3)Oc3ccccc32)cc1 (centres undefined) in this test?
## Result 0

## Task So what was the verdict on `CN(C)CCNC(=O)c1cccc2nc3cc(Cl)ccc3nc12` in this test?
## Result 0

====

Could you please report measured GI50 for the items listed next?
System: OVCAR-4
Assay: NCI tumour cell line growth inhibition, 48 h
The source made the active and inactive calls. No stated cut-off is given here; in the data, active = GI50 up to about 1.1 µM and inactive = higher.

Some compounds with known GI50 results, for comparison:
1) Cc1cc(C)c2c(O)cc(-c3ccc(F)cc3)nc2n1: 17.6 µM (inactive)
2) CNC1(c2cc3ccccc3s2)CCCCC1: 27.7 µM (inactive)
3) Cc1cn(CCCCCCOC(=O)NC(CCCNC(=N)N)C(=O)O)c(=O)[nH]c1=O (stereo unspecified): > 100 µM (inactive)

# batch: return GI50 for each of the 4 compounds below
1. O=C(c1cc(Cl)cc(Cl)c1)N(C(=O)N1CCN(c2ccccc2)CC1)c1ccccc1
2. CC(=O)NC(CC(C)C)C(=O)NC(CC(C)C)C(=O)NC(C=O)CCCNC(=N)N (stereo unspecified)
3. C[C@@H]1OC(=O)/C(=C\N(C)C)[C@H]2CC(=O)N(CCc3cn(S(=O)(=O)C(F)(F)F)c4ccccc34)C[C@H]12
4. COC(=O)c1ccccc1C1CN=NC12Cc1ccc3c(c1C2=O)CCC3 (stereo unspecified)

## Result
1. 23 µM (inactive)
2. > 100 µM (inactive)
3. > 100 µM (inactive)
4. > 100 µM (inactive)

# batch: return GI50 for each of the 7 compounds below
1. CC1=CC(=O)c2c(O)cccc2C1=O [PLUMBAGIN]
2. COC(=O)CCC(NC(=S)N/N=C(\C)c1cnccn1)C(=O)OC (stereo unspecified)
3. O=C1c2ccccc2C(=O)c2c1ccc1c2N=C(c2ccc(Br)cc2)CC(c2cccc3ccccc23)N1 (stereo unspecified)
4. CN(C)CCCC1c2ccccc2Oc2ccc(C(F)(F)F)cc21 (stereo unspecified)
5. Cc1nc(O)nc(N/N=C/c2ccc(Cl)c(Cl)c2)c1C(=O)Nc1ccc(Cl)c(Cl)c1
6. CCOC(=O)CCC(NC(=O)Cc1ccc(Nc2nc3ccccc3nc2-c2ccccc2)cc1)C(=O)OCC (stereo unspecified)
7. CC1=C/C(=N\O)C(C(O)(C(F)(F)F)C(F)(F)F)C(C)(C)C1 (stereo unspecified)

## Result
1. 1.76 µM (inactive)
2. 56.2 µM (inactive)
3. > 100 µM (inactive)
4. 14.5 µM (inactive)
5. 3.62 µM (inactive)
6. 6.79 µM (inactive)
7. > 10 µM (inactive)

# batch: return GI50 for each of the 7 compounds below
1. CCCCCCCCCCCCNC(=O)CCC(NC(=O)c1ccc(N(C)Cc2cnc3nc(N)nc(N)c3n2)cc1)C(=O)NCCCCCCCCCCCC (stereo unspecified)
2. CN(C)CCSC1=Nc2ccc(Cl)cc2C(c2ccccc2Cl)=NC1
3. COC(=O)C(Cc1c[nH]c2ccccc12)NP(=O)(O)OCC1OC(n2cc(Br)c(=O)[nH]c2=O)CC1O (stereo unspecified)
4. Cc1cc(N(CCC#N)CCC#N)ccc1/C=C/C(=O)Nc1ccccc1Cl
5. COC(=O)C1(C)NCCc2c1[nH]c1ccccc21 (stereo unspecified)
6. COc1ccc(CNC(=O)NCn2cc(-c3ccccc3)nn2)cc1
7. N=C(N)NCCN1CCCCCc2ccccc21

## Result
64.1 µM (inactive)
> 100 µM (inactive)
> 100 µM (inactive)
> 100 µM (inactive)
> 100 µM (inactive)
> 100 µM (inactive)
> 10 µM (inactive)

====

System: HL-60
Experiment: NCI tumour cell line growth inhibition, 48 h
Calls of active or inactive are those of the source. No stated cut-off is given here; in the data, active = GI50 up to about 1.1 µM and inactive = higher.
Could you please pick one outcome from this set? True = active, False = inactive

## Task So what was the verdict on [O-][S+](c1ccccc1)C1CC2CC3(CCC21O)OCCO3 (centres undefined) in this test?
## Result False

## Task So what was the verdict on `N=C(N)/N=C(\N)Nc1cnccn1` in this test?
## Result False

## Task So what was the verdict on `CN(C)/C=N\c1cccc2cnccc12` in this test?
## Result False

## Task So what was the verdict on `c1cncc(-c2ncc3cccnc3n2)c1` in this test?
## Result False

## Task So what was the verdict on COC1(OC)C2(Cl)C(Cl)=C(Cl)C1(Cl)C1C=CC=CC12 (centres undefined) in this test?
## Result False

## Task So what was the verdict on O=P(Nc1ccccc1)(Oc1ccccc1)N(CCCl)CCCl (centres undefined) in this test?
## Result False

## Task So what was the verdict on `CC(=O)c1sc2[n+](c1C)C(=O)/C(=C\c1ccccc1Cl)S2` in this test?
## Result False

## Task So what was the verdict on `Nc1cc(S(=O)(=O)O)cc2ccc(S(=O)(=O)O)cc12` in this test?
## Result False

====

Tested on: EKVX
Experiment: NCI tumour cell line growth inhibition, 48 h
Calls of active or inactive are those of the source. Cut-off read from the data, not from the text of the source: active = GI50 up to about 1.1 µM and inactive = higher.
Could you please pick one outcome from this set? label 1 (active), label 0 (inactive)

Use the examples below as a reference point.
1) COC(=O)c1cc(C)ccc1/C=C1\Cc2cc(C)c(C)cc2C1=O: label 0
2) Nc1cccc(C(=O)/C=C/c2ccccc2O)c1: label 0

## Task So what was the verdict on COc1cc(C2SCC(=O)N2c2cc(Cl)c(Cl)cc2Cl)cc(OC)c1OC (stereo unspecified) in this test?
## Result label 0

## Task So what was the verdict on `CSc1[nH]cnc1C(N)=S` in this test?
## Result label 0

## Task So what was the verdict on `C[n+]1c(-c2ccccc2)cc2/c(=C\c3ccccc3)c3ccccc3n21` in this test?
## Result label 0

## Task So what was the verdict on N#CC(/N=N/c1ccccc1)c1nc2ccccc2o1 (stereo unspecified) in this test?
## Result label 0

## Task So what was the verdict on `O=C1OC(c2ccccc2)=N/C1=C\c1ccc([N+](=O)[O-])cc1` in this test?
## Result label 0

## Task So what was the verdict on `Nc1c(Cl)ncnc1N[C@@H]1C[C@H]1CO` in this test?
## Result label 0

## Task So what was the verdict on `NNC(=O)c1ccc[n+](CCc2ccccc2)c1` in this test?
## Result label 0

====

Test system: K562
Test: NCI tumour cell line growth inhibition, 48 h
The source made the active and inactive calls. Cut-off read from the data, not from the text of the source: active = GI50 up to about 1.1 µM and inactive = higher.
Could you please pick one outcome from this set? T = active, F = inactive

Use the examples below as a reference point.
1) CCCCCCCCCCCCNC(=O)CCC(NC(=O)c1ccc(N(C)Cc2cnc3nc(N)nc(N)c3n2)cc1)C(=O)NCCCCCCCCCCCC (stereo unspecified): F
2) COC(=O)Cc1cc(=O)n2c3ccccc3n(C)c2c1C#N: F
3) O=C(O)CNc1c2ccccc2[n+]([O-])c2ccccc12: F
4) COC(=O)c1cc(NC(=O)c2cc(NC(=O)Cc3c[nH]c4ccccc34)cn2C)cn1C: F
5) COc1cc(/C=C(\NC(=O)c2ccccc2)c2nc3cc([N+](=O)[O-])ccc3[nH]2)cc(OC)c1OC: F
6) CN(C)CCNC(=O)c1cccc2nc3cc(Cl)ccc3nc12: F
7) O=c1c2cc(S(=O)(=O)O)ccc2nc(COc2ccc(Oc3ccc(Cl)cc3Cl)cc2)n1-c1ccc(Cl)cc1Oc1c(Cl)cccc1Cl: F
8) CN1CCOC(c2ccc(Cl)cc2)O1 (stereo unspecified): F

## Task So what was the verdict on O=C(Nc1ccccc1C(=O)O)C(=O)C(C(=O)c1ccccc1-c1ccccc1)C1OC(=O)c2ccccc21 (stereo unspecified) in this test?
## Result F

## Task So what was the verdict on `CC(=O)Nc1cccc(/N=N/N(C)C)c1` in this test?
## Result F

## Task So what was the verdict on COc1ccc(OC)c(CC(C)N)c1 (stereo unspecified) in this test?
## Result F

## Task So what was the verdict on `CN(C)CCNC(=O)c1ccc(NC(=O)c2nc([N+](=O)[O-])cn2C)cc1` in this test?
## Result F

## Task So what was the verdict on `Cc1cc(N(CCC#N)CCC#N)ccc1/C=C/C(=O)Nc1ccccc1Cl` in this test?
## Result F

## Task So what was the verdict on O=C1CSC(c2ccc(Cl)cc2)N1c1ccc(Oc2ccc(Cl)cc2)c(Cl)c1 (stereo unspecified) in this test?
## Result F

## Task So what was the verdict on `CN(C)CCSC1=Nc2ccc(Cl)cc2C(c2ccccc2Cl)=NC1` in this test?
## Result F
